Just for reference, paper doi:10.1101/2022.11.24.517821v4 is where these values come from.

Would you kindly list Emax for each of these compounds?
Target under test: TAS2R14 (Homo sapiens, UniProt Q9NYV8)
Sequence (Q9NYV8 1-317): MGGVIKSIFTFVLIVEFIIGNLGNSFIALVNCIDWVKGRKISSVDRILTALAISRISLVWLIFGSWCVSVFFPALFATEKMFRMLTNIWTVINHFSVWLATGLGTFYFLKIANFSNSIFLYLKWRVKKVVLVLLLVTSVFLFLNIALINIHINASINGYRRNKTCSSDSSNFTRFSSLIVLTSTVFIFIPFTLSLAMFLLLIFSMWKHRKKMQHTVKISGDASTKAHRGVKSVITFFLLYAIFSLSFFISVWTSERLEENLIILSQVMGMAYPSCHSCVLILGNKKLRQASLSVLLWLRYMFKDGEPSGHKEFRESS
Assay summary: cell-based
Design: species or system HEK293T
Measurement context: HEK-293T, read-out: Emax[%flu acid]

Consider the following illustrative entries.
[[record]]
smiles_input = "O=C(O)c1ccccc1Nc1cc(OCc2ccccc2)cc(C(F)(F)F)c1"
observable = "Emax"
result = "66%"

[[record]]
smiles_input = "O=C(O)c1ccccc1Nc1ccc(N2CCOCC2)c(C(F)(F)F)c1"
observable = "Emax"
result = "44%"

[[record]]
smiles_input = "NC(=O)c1cc(Nc2ccccc2C(=O)O)cc(C(F)(F)F)c1"
observable = "Emax"
result = "127%"

[[record]]
smiles_input = "COc1cccc(COc2cccc(Nc3ccccc3C(=O)O)c2)c1"
observable = "Emax"
result = "70%"


Inquiry: Dear colleague, I am looking for the recorded Emax of the following compound: COc1cc(Nc2ccccc2-c2nnn[nH]2)cc(C(F)(F)F)c1
Reply text: 98%

----------
Target under test: TAS2R14 (Homo sapiens, UniProt Q9NYV8)
Assay summary: cell-based
Would you kindly list pEC50 for each of these compounds?
Numbers only, as −log10 of the molar value.

[[record]]
compound = "O=C(O)c1cc([N+](=O)[O-])ccc1Nc1cccc(C(F)(F)F)c1"
recorded_number = 6.57

[[record]]
compound = "CCCCCNC(=O)c1ccc(Nc2ccccc2C(=O)O)cc1C(F)(F)F"
recorded_number = 4.52

[[record]]
compound = "FC(F)Oc1cccc(Nc2ccccc2-c2nnn[nH]2)c1"
recorded_number = 6.70


Could you tell me pEC50 for each of these compounds? They are listed below.
1. NS(=O)(=O)c1ccccc1Nc1cccc(OCc2ccccc2)c1 [lw19a]
2. FC(F)(F)Oc1cccc(Nc2ccccc2-c2nnn[nH]2)c1
3. O=[N+](O)c1cc(Nc2ccccc2-c2nnn[nH]2)cc(C(F)(F)F)c1
4. Oc1cc(-c2ccccc2Nc2cccc(C(F)(F)F)c2)on1
5. FC(F)(F)c1cc(Nc2ccccc2-c2nnn[nH]2)ccc1Cl
6. COC(=O)c1ccccc1Nc1cccc(C(F)(F)F)c1

Reply text:
1: 4.19; 2: 6.72; 3: 6.14; 4: 5.51; 5: 6.72; 6: 5.28

Could you tell me pEC50 for each of these compounds? They are listed below.
1. COc1ccc(Nc2ccccc2C(=O)O)cc1OCc1ccc(Cl)cc1
2. COC(=O)c1cc(Nc2ccccc2C(=O)O)cc(C(F)(F)F)c1
3. O=C(O)c1ccccc1Nc1cc(C#CC2CC2)cc(C(F)(F)F)c1
4. Cc1cc(Nc2ccccc2-c2nnn[nH]2)cc(C(F)(F)F)c1
5. CC#Cc1ccc(Nc2ccccc2C(=O)O)cc1C(F)(F)F
6. Cc1ccc(Nc2ccccc2C(=O)O)cc1OCc1cccc(F)c1
7. O=C(O)c1ccccc1Nc1cc(C(F)(F)F)cc(C(F)(F)F)c1Cl

Reply text:
5.92
6.11
6.34
6.23
6.42
5.72
6.82

Could you tell me pEC50 for each of these compounds? They are listed below.
1. COC(=O)c1cc(Nc2ccccc2-c2nnn[nH]2)cc(C(F)(F)F)c1
2. COc1cc(Nc2ccc(Cl)cc2-c2nnn[nH]2)cc(C(F)(F)F)c1
3. O=C(O)c1ccccc1Nc1cccc(OC(F)(F)F)c1

Reply text:
[6.19, 6.24, 6.60]

Could you tell me pEC50 for each of these compounds? They are listed below.
1. CCCCC#Cc1ccc(Nc2ccccc2C(=O)O)cc1C(F)(F)F
2. FC(F)(F)c1cc(Nc2ccccc2-c2nnn[nH]2)ccc1N1CCOCC1

Reply text:
[5.36, 6.72]
